Listing of recorded Bmax (POC) by entry.
Target: GLP1R (Homo sapiens, UniProt P43220)
Sequence (P43220 24-463): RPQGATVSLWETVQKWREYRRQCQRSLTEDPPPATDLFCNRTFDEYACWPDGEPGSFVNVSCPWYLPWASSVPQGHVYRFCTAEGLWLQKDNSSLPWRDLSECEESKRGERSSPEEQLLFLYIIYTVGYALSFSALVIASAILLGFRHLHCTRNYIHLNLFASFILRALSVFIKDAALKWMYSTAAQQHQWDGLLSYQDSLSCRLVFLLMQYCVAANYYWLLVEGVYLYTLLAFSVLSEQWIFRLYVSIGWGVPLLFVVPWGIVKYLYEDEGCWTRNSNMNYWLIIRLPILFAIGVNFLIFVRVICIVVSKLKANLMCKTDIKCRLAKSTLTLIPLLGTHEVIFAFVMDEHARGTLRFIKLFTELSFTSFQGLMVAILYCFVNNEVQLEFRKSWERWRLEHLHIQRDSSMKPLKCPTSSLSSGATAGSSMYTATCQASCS
Assay: β-Arrestin-mediated GLP1R internalization assay (PathHunter engineered U2OS cells)
Format: cell-based
Set-up: host or cells: PathHunter engineered U2OS cells
Settings: averaged Bmax, percentage of control GLP-1 (7-37), highest concentration tested
Experimental: A similar assay can also be used to assess the extent of signal attenuation due to GLP-1R internalization (the β-Arrestin Internalization Assay). […] Specifically, PathHunter engineered U2OS cells from the assay kit (Cat #93-0724E3CP0L) were plated at a density of 2000 cells/20 μL/well in a 384-well white/clear bottom plates (Greiner Cat #781098). […] Cells were stored in a 37° C. incubator and kept for approximately 48 hours until ready for the assay. […]
Report only the number, with the unit POC understood.

INSERT INTO measurements (structurestring, tgt, property, reading) VALUES
  ('Fc1cc(Cl)ccc1COc1cccc(C2=CCN(Cc3nc4ccc(-c5nnn[nH]5)cc4n3C[C@@H]3CCO3)CC2)n1', 'GLP1R (Homo sapiens, UniProt P43220)', 'Bmax (POC)', 24.2);

Query: Data request, read-out Bmax (POC), for N#Cc1ccc(COc2cncc(C3CCN(Cc4nc5ccc(C(=O)O)cc5n4C[C@@H]4CCO4)CC3)n2)c(F)c1
Response: 7.40

Query: Data request, read-out Bmax (POC), for O=C(O)c1ccc2nc(CN3CCC(c4cncc(OCc5ccc(Cl)cc5F)n4)CC3)n(C[C@@H]3CCO3)c2c1
Response: 6.64

Query: Data request, read-out Bmax (POC), for O=C(O)c1ccc2nc(CN3CC=C(c4ccc(F)c(OCc5ccc(Cl)cc5F)c4)CC3)n(C[C@@H]3CCO3)c2c1F
Response: 52.8

Query: Data request, read-out Bmax (POC), for N#Cc1ccc(COc2nc(C3=CCN(Cc4nc5ccc(C(=O)O)cc5n4C[C@@H]4CCO4)CC3)ccc2F)c(F)c1
Response: 31.4

Query: Data request, read-out Bmax (POC), for N#Cc1ccc(COc2cccc(C3=CCN(Cc4nc5ccc(C(=O)O)cc5n4C[C@@H]4CCO4)CC3)n2)c(F)c1
Response: 20.1

Query: Data request, read-out Bmax (POC), for O=C(O)c1ccc2nc(CN3CC=C(c4ccnc(OCc5ccc(Cl)cc5F)n4)CC3)n(C[C@@H]3CCO3)c2c1
Response: 14.3

Query: Data request, read-out Bmax (POC), for O=C(O)c1ccc2nc(CN3CC=C(c4ccc(F)c(OCc5ccc(Cl)cc5F)c4)CC3)n(C[C@@H]3CCO3)c2c1
Response: 25.9

Data origin, for the record: patent US10844049B2
